Please respond with reported composite z-score for every item in the list.
target: Focal adhesion kinase 1 (Homo sapiens) (UniProt Q05397); assay: small-molecule microarray binders of FAK, primary screen, biochemical, 635/667 nm fluorescence, BSA, DTT (AID 1130); conditions: PTK2 binding, 635 nm fluorescence, higher = more signal;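 further: composite of spot emission at 667 nm and signal to noise over triplicate slides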
Sequence (Q05397 whole entry, looked up): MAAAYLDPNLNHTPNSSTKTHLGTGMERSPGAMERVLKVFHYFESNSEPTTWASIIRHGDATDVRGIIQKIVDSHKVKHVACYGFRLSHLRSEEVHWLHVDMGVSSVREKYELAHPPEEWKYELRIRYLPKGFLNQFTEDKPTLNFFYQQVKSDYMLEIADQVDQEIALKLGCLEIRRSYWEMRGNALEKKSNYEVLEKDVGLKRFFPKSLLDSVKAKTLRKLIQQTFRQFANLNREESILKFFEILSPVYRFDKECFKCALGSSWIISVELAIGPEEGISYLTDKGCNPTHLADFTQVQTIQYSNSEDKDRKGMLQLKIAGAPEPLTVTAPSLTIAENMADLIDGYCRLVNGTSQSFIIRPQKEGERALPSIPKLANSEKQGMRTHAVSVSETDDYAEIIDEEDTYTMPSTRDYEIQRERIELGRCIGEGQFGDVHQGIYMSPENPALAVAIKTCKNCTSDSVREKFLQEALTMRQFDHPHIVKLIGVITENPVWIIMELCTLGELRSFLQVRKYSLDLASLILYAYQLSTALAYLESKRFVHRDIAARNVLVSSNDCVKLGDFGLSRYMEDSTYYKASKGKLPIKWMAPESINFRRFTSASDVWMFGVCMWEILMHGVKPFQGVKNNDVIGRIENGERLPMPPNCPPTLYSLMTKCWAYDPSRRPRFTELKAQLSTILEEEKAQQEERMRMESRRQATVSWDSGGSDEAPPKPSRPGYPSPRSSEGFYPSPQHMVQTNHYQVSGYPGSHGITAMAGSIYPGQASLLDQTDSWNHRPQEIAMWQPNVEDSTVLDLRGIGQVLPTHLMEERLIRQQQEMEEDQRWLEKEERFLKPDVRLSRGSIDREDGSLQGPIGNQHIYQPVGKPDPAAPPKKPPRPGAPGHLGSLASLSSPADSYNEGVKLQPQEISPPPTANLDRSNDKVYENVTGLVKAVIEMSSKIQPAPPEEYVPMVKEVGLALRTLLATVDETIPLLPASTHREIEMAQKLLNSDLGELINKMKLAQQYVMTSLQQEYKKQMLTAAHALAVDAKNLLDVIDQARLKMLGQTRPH
Reply briefly: the number, and no unit.

# query: composite z-score of entry "CCOC(=O)c1ccc(NC(=O)O[C@H]2[C@H](OC(=O)Nc3ccc4c(c3)OCO4)[C@H](OC(=O)Nc3ccc4c(c3)OCO4)[C@@H](OC)O[C@@H]2CO)cc1" 0.812

# query: composite z-score of entry "COCCOC(=O)N1C(=O)[C@@]2(c3cc(C#Cc4ccc(OC)cc4)ccc31)[C@H](c1ccc(O)cc1)N1[C@H](c3ccccc3)[C@H](c3ccccc3)OC(=O)[C@H]1[C@@H]2C(=O)N1CCCCCCC1" 0.415

# query: composite z-score of entry "COCCOC(=O)N1C(=O)[C@@]2(c3cc(C#CCC(C(=O)OC)C(=O)OC)ccc31)[C@H](C(=O)N1CCc3cc(OC)c(OC)cc3C1)[C@H]1C(=O)O[C@H](c3ccccc3)[C@H](c3ccccc3)N1[C@@H]2c1ccc(OCCO)cc1" 0.497

# query: composite z-score of entry C=CCC(OC(C)=O)[C@@H]1[C@@H](N(Cc2cccc3ccccc23)C(=O)Cc2ccc(F)cc2)c2cc(OCCCO)ccc2N1C(=O)c1ccc2ccccc2n1 (stereo partly drawn) -0.122

# query: composite z-score of entry "COc1ccccc1CN1C(=O)c2ccccc2[C@@]2(Cc3ccccc3N(CC(F)(F)F)C2=O)[C@@H]1c1ccc(CO)cc1" 0.205

# query: composite z-score of entry "O=C(CS)NCCCCCNC(=O)[C@@H]1C[C@@H]2C(=O)N3CCC[C@H]3C(=O)N2[C@@H]1c1cccc(OCCO)c1" 0.515

# query: composite z-score of entry "CC(C)N1C(=O)c2ccccc2[C@@H](C(=O)NC2CC2)[C@@H]1c1ccc(CO)cc1" -0.361

# query: composite z-score of entry COc1cc(OC)c(C(O)C2C=CC3C(=O)N(c4ccccc4)C(=O)C3N2Nc2ccccc2)cc1Br (stereo not drawn) 0.531

# query: composite z-score of entry CN1C(=O)C2C=CC(C(O)c3ccc(F)cc3)N(Nc3ccccc3)C2C1=O (stereo not drawn) 1.04

# query: composite z-score of entry "O=c1n(-c2ccccc2)c(=O)n2n1CC(COc1ccccc1)=C([C@H](O)CCc1ccccc1)[C@@H]2CO" -0.18

# query: composite z-score of entry "COCCOC(=O)N1C(=O)[C@@]2(c3cc(C#CC4=CCCCC4)ccc31)[C@H](C(=O)N1CCCCCCC1)[C@H]1C(=O)O[C@H](c3ccccc3)[C@H](c3ccccc3)N1[C@@H]2c1ccc(O)cc1" 0.701

# query: composite z-score of entry C[C@@H]1NC(=O)[C@@]23C(=O)N[C@@H](Cc4ccccc4)C2[C@H](C)[C@@]2(C)O[C@H]2C3/C=C/C/C=C\CNC(=O)[C@@H]2CCCN2C1=O (stereo partly drawn) -0.178

# query: composite z-score of entry CCCCN1CC=CC23O[C@@H]4/C=C\CCC(C)OC(=O)C4[C@H]2C(=O)N(C(CO)C(C)C)[C@@H]3C1=O (stereo partly drawn) -0.35
